- target system: trypsin (Bos taurus)
- Sequence (P00760 24-246): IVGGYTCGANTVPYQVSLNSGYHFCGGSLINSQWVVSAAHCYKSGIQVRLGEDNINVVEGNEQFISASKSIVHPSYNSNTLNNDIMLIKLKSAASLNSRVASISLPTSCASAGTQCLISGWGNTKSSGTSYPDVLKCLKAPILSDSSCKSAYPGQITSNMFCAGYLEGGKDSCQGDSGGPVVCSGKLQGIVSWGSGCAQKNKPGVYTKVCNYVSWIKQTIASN
readout kind: IC50
State the value with its unit after it.

Output reported IC50 of the compound CS(=O)(=O)O.N=C(N)Nc1ccc(C(=O)Oc2ccc(C(=O)OCC(=O)N3CCCCC3)cc2)cc1 [Compound No. 1, mesylate] on trypsin (Bos taurus).
0.5 nM

----------
Collected IC50 values appear next to each entry.
- target system: plasmin (Homo sapiens)
- Sequence (P00747 581-810 limits assumed): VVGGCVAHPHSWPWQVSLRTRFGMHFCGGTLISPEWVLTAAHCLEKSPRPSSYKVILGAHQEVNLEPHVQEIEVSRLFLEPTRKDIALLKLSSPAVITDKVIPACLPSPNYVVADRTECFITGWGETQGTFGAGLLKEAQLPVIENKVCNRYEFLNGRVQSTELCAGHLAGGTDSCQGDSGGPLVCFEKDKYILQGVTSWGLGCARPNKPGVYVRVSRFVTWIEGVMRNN
- Sequence (P00747 97-580 limits assumed): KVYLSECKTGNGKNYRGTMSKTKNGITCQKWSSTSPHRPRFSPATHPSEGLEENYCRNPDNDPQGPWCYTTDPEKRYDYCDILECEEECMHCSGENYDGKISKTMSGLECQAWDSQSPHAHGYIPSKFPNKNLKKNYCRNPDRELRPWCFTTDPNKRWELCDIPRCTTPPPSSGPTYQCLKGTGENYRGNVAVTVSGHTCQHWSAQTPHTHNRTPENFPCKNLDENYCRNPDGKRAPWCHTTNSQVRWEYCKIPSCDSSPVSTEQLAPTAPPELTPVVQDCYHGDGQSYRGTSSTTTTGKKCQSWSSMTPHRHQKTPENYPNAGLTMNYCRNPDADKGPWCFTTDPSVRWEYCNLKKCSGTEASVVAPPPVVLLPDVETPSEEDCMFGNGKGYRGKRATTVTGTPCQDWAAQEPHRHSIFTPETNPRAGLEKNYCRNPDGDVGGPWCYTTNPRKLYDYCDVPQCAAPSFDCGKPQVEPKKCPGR
- assay info: Inhibitory activity on plasmin in vitro (euglobulin/streptokinase/fibrinogen system)
- experimental parameters: human euglobulin, streptokinase, fibrinogen, borate saline buffer pH 7.4, 37° C., 30 minutes; read-out: 50% Inhibition Concentration (molar concentration), Anti-Plasmin
# value in nM; strip the unit string

>>> measured_result("N=C(N)Nc1ccc(C(=O)Oc2ccc(C(=O)OCC(=O)NC3CCCCC3)cc2)cc1 [Compound No. 2]")
0.13

Now let's try a different one.
Output reported IC50 of the compound CS(=O)(=O)O.N=C(N)Nc1ccc(C(=O)Oc2ccc(C(=O)OCC(=O)N3CCCCC3)cc2)cc1 [Compound No. 1, mesylate] on plasmin (Homo sapiens).
0.45

----------
- assay info: Solubility in water
- Type: physicochemical
readout kind: solubility (mM)
# value in mM; strip the unit string

Read off the recorded solubility for `CS(=O)(=O)O.N=C(N)Nc1ccc(C(=O)Oc2ccc(C(=O)OCC(=O)N3CCCCC3)cc2)cc1`
20

Read off the recorded solubility for `N=C(N)Nc1ccc(C(=O)Oc2ccc(C(=O)OCC(=O)NC3CCCCC3)cc2)cc1`
20

The origin of these recorded values is patent US4310533A.
